Ref: PubChem BioAssay (EPA / NIEHS)

- Read-out: ABC Transporter (ABCC2), ABCC2 (gene 1244)
- assay: LTEA_HepaRG_ABCC2: Life Technologies and Expression Analysis (LTEA) Assay for ABC Transporter (ABCC2) using HepaRG (AID 2283464)
- experimental.conditions: mRNA level, 48 h; actives raise or lower the signal
The source made the active and inactive calls. How the source made its calls: active means hit-call score of the fitted dose curve at least 0.9, where 1 is the maximum; inactive means score below 0.9.
Outcome codes: active, inactive

>>> label_value("c1ccc2[nH]c(-c3cscn3)nc2c1")
"inactive"
>>> label_value("S=C([S-])NCCNC(=S)[S-].[Mn+2]")
"active"
>>> label_value("N[C@@H](Cc1cc(I)c(Oc2ccc(O)c(I)c2)c(I)c1)C(=O)O")
"active"
>>> label_value("CC(=O)S[C@@H]1CC2=CC(=O)CC[C@]2(C)[C@H]2CC[C@@]3(C)[C@@H](CC[C@@]34CCC(=O)O4)[C@H]12")
"inactive"
>>> label_value("CCNc1nc(N)nc(Cl)n1")
"inactive"
>>> label_value("CCCOC(=O)NCCCN(C)C")
"inactive"
>>> label_value("C[C@]12CC[C@@H]3c4ccc(O)cc4C[C@@H](CCCCCCCCCS(=O)CCCC(F)(F)C(F)(F)F)[C@H]3[C@@H]1CC[C@@H]2O (stereo partly specified)")
"active"
>>> label_value("CCCN(CCC)C(=O)SCC")
"inactive"
>>> label_value("CC(C)CCCCCCc1ccc(O)cc1")
"inactive"
>>> label_value("CN(C)C(=O)Nc1ccc(Cl)c(Cl)c1")
"inactive"
>>> label_value("CCOC(=O)NCCOc1ccc(Oc2ccccc2)cc1")
"inactive"
